# Measured Target: T1, TCR gamma/delta constant region (TRGDC) (human, UniProt P0CF51 1-173; B7Z8K6 1-153)
# T1 chain (looked up) 1: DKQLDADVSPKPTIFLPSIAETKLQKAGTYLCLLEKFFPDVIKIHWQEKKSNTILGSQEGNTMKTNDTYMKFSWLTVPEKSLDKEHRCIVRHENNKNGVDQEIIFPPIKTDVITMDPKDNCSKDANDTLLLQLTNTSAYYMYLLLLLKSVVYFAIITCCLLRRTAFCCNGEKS
# T1 chain (looked up) 2: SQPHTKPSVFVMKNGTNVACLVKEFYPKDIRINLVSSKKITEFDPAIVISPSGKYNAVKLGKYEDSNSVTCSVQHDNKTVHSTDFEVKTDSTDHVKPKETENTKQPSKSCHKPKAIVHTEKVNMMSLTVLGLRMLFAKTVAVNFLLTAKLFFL
# Test Method Notes: cell-based or functional assay
Parameter IFNγ; Luninex (supernatant): see the listing below.
Attribute Measured: IFNγ; Luninex (supernatant)

VG9B112 (antibody, human IgG1, kappa, V domains shown) VH: QVQLQQSGPGLVKPSQTLSLTCAISGDSVSSNSAAWNWIRQSPSRGLEWLGGTYYRSKWFNNYAVSVKSRITINPDTSTNQFSLQLNSVTPADTAVYYCARGEWGLRDAFDIWGQGTMVTVSS VL: DIQMTQSPSFLSASVGDRVIITCRASQGIHSYLAWYQQKPGKVPKLLIYVASTLQSGVPSRFSGSGSGTEFTLTISSLQPEDFATYYCQQLNSYPWTFGQGTKLEIKR = 461
VG9B144 (antibody, human IgG1, lambda, V domains shown) VH: QVQLVQSGAEVKKPGASVKVSCKASGYTFTGYYMHWMRQAPGQGLEWMGWINPNSGATNKEQKFQGRVTMTRDTSISTAYMELSRLRSDDTAVYYCAREDDAFDVWGQGTMVTVSS VL: SSELTQDPAVSVALGQTVRITCQGDNLRNYYATWFQQKPGQAPVLVFFGKNNRPSGIPDRFSGSSSGDTASLTITGAQAEDEADYYCNSRDSSGNHVVFGGGTKLTVLG = 352
VG9B387 (antibody, human IgG1, lambda, V domains shown) VH: EVQLVESGAEVKKPGASVKVSCKASGFTFTGYYLQWVRQAPGQGLEWMGWINPNSGYTDYAQRFQDRVTMTRDTSINTAYMELSRLRSDDTAVYYCARLDDAFDVWGQGTMVTVSS VL: SYELTQDPAVSVALGQTVRITCQGDSLRNYYAIWYQQKPGQAPVLVIFGKNNRPSGIPDRFSGSSSGTTASLTITGTQAEDEADYYCNSRDSSGNHWVFGGGTKLTVLG = 746
